- assayText: Stability in rat plasma
- Format: ADME, cell-free
measurementLabel: half-life

[
  {
    "lineNotation": "COC(=O)CCCC=C(c1cc(C#N)c(OC)c(C(=O)OC)c1)c1cc(C#N)c(OC)c(C(=O)OC)c1",
    "measurementLabel": "half-life",
    "observedMeasurement": "12.4 min"
  }
]

* * *

- Tested on: Human immunodeficiency virus 1
- assayText: Antiviral activity against HIV1 3B infected in human MT4 cells assessed as inhibition of virus-induced cytopathic effect by MTT assay
- Assay type: functional, organism-based
- runParameters: Human immunodeficiency virus 1, 3B
pEC50: −log10 of the molar value.
measurementLabel: pEC50

[
  {
    "lineNotation": "COc1c(C)cc(/C(=C\\CCCc2nnc(C)o2)c2cc(C)c3oc(=O)n(C)c3c2)cc1C(=O)SC",
    "measurementLabel": "pEC50",
    "observedMeasurement": 6.74
  }
]

* * *

- assayText: Cytotoxicity against human CEM-SS cells
- Type: cell-based
- runParameters: CEM-SS cells

[
  {
    "lineNotation": "COC(=O)CCCC=C(c1cc(C#N)c(OC)c(C(=O)OC)c1)c1cc(C#N)c(OC)c(C(=O)OC)c1",
    "unitString": "µM",
    "CC50": 17
  }
]

* * *

- System: CEM-SS
- assayText: Cytotoxicity against human CEM-SS cells
- Assay type: cell-based
- runParameters: cem-ss
measurementLabel: CC50 (µM)

[
  {
    "lineNotation": "COc1c(C)cc(/C(=C\\CCCc2nnc(C)o2)c2cc(C)c3oc(=O)n(C)c3c2)cc1C(=O)SC",
    "targetDesc": "CEM-SS",
    "measurementLabel": "CC50",
    "observedMeasurement": 3
  }
]
